Tested on: human lung adenocarcinoma A549 cells
Test: MTT assay, growth inhibition of A549 cells
Format: cell-based
Settings: 72 h

{"compound": "N.N.[Cl][Pt][Cl] [cis-platin, reference compound]", "IC50 [µM]": 32}

====

In this section, each of the compounds is paired with its reported IC50.
System: human hepatocarcinoma SMMC7721 cells
Assay: MTT assay, growth inhibition of SMMC7721 cells
Type: cell-based
Conditions: Homo sapiens, SMMC-7721, 72 h
observationType: IC50 (µM)

{"cpdSmiles": "Oc1cccc(-c2nc3c4cccnc4c4ncccc4c3[nH]2)c1", "valueMeasured": 24.2}
{"cpdSmiles": "FC(F)(F)c1cccc(-c2nc3c4cccnc4c4ncccc4c3[nH]2)c1", "valueMeasured": 12.9}
{"cpdSmiles": "Clc1cccc(-c2nc3c4cccnc4c4ncccc4c3[nH]2)c1", "valueMeasured": 12.6}
{"cpdSmiles": "O=[N+]([O-])c1cccc(-c2nc3c4cccnc4c4ncccc4c3[nH]2)c1", "valueMeasured": 17.5}
